All values here come from paper PMC9611758.

- Procedure Summary: Reduction experiments with AsA by 1H-NMR and 1D-195Pt-NMR
- Format: physicochemical
- Measurement Conditions: PBS, D2O, 37 °C, regions −2800 and 400 ppm
- Experimental: Platinum(IV) complexes are reduced to their platinum(II) precursors by intracellular biological reducing agents such as AsA or GSH in tumour cells. However, the precise mechanism by which reduction occurs is not fully understood. […] 1D-^195Pt-NMR was measured within the regions of −2800 and 400 ppm (30 min per region), at 37 °C. […] The reduction properties of 1–8 were monitored using ^1H-NMR and 1D-^195Pt-NMR spectroscopy on a 400 MHz Bruker (Melbourne, VIC, Australia) Avance Spectrometer. […]
Experimental Endpoint: extent of reduction 1 h after the final 1H-NMR experiment (1D-195Pt-NMR)

Compound: Cc1c(C)c2c3c4c1=CC=C[N]4[Pt+2]([OH])([O]C(=O)Cc1ccc(I)cc1)[N]3C=CC=2.N[C@H]1CCCC[C@@H]1N [Complex 8]
Reading: complete reduction
--
Compound: N[C@H]1CCCC[C@@H]1N.O=C([O-])Cc1ccc(F)cc1.[OH-].[Pt+4].c1cnc2c(c1)ccc1cccnc12 [Complex 3, [Pt^IV(phen)(SS-DACH)(4-FPA)(OH)]^2+]
Reading: complete reduction
--
Compound: N[C@H]1CCCC[C@@H]1N.O=C([O-])Cc1ccc(Br)cc1.[OH-].[Pt+4].c1cnc2c(c1)ccc1cccnc12 [Complex 5, [Pt^IV(phen)(SS-DACH)(4-BPA)(OH)]^2+]
Reading: partial reduction
--
Compound: Cc1c(C)c2c3c4c1=CC=C[N]4[Pt+2]([OH])([O]C(=O)Cc1ccc(F)cc1)[N]3C=CC=2.N[C@H]1CCCC[C@@H]1N [Complex 4]
Reading: partial reduction
